Property: IC50; scope: individual compounds
# Tested on: MCF7
# procedure.details: Antiproliferative activity against human MCF7 cells assessed as inhibition of cell growth incubated for 48 hrs by MTT assay
# Assay type: functional, cell-based
# condition.notes: MCF7, 48 h

chem.smiles	IC50 [µM]
CC1=C(O)C(=O)C=C2C1=CC=C1[C@@]2(C)CC[C@@]2(C)[C@@H]3C[C@](C)(C(=O)OCCOC(=O)/C=C(\C#N)c4ccccc4)CC[C@]3(C)CC[C@]12C	0.7
CC1=C(O)C(=O)C=C2C1=CC=C1[C@@]2(C)CC[C@@]2(C)[C@@H]3C[C@](C)(C(=O)OCCCOC(=O)/C=C(\C#N)c4ccccc4)CC[C@]3(C)CC[C@]12C	0.98
CC1=C(O)C(=O)C=C2C1=CC=C1[C@@]2(C)CC[C@@]2(C)[C@@H]3C[C@](C)(C(=O)OC/C=C/COC(=O)/C=C(\C#N)c4ccc(F)cc4)CC[C@]3(C)CC[C@]12C	1.11
CC1=C(O)C(=O)C=C2C1=CC=C1[C@@]2(C)CC[C@@]2(C)[C@@H]3C[C@](C)(C(=O)O)CC[C@]3(C)CC[C@]12C	2.04
CC1=C(O)C(=O)C=C2C1=CC=C1[C@@]2(C)CC[C@@]2(C)[C@@H]3C[C@](C)(C(=O)OCCOC(=O)/C=C(\C#N)c4ccc(F)cc4)CC[C@]3(C)CC[C@]12C	2.35
COC(=O)[C@]12CCC(C)(C)C[C@H]1[C@H]1C(=O)C=C3[C@@]4(C)C=C(C#N)C(=O)C(C)(C)[C@@H]4CC[C@@]3(C)[C@]1(C)CC2	0.85
COc1ccc(/C(C#N)=C/C(=O)OC/C=C/COC(=O)[C@]2(C)CC[C@]3(C)CC[C@]4(C)C5=CC=C6C(=CC(=O)C(O)=C6C)[C@]5(C)CC[C@@]4(C)[C@@H]3C2)cc1	1.44
COc1ccc(/C(C#N)=C/C(=O)OCCCOC(=O)[C@]2(C)CC[C@]3(C)CC[C@]4(C)C5=CC=C6C(=CC(=O)C(O)=C6C)[C@]5(C)CC[C@@]4(C)[C@@H]3C2)cc1	1.1
CC1=C(O)C(=O)C=C2C1=CC=C1[C@@]2(C)CC[C@@]2(C)[C@@H]3C[C@](C)(C(=O)OCCCOC(=O)/C=C(\C#N)c4ccc(F)cc4)CC[C@]3(C)CC[C@]12C	0.64
CC1=C(O)C(=O)C=C2C1=CC=C1[C@@]2(C)CC[C@@]2(C)[C@@H]3C[C@](C)(C(=O)OC/C=C/COC(=O)/C=C(\C#N)c4ccccc4)CC[C@]3(C)CC[C@]12C	2.86
COc1ccc(/C(C#N)=C/C(=O)OCCOC(=O)[C@]2(C)CC[C@]3(C)CC[C@]4(C)C5=CC=C6C(=CC(=O)C(O)=C6C)[C@]5(C)CC[C@@]4(C)[C@@H]3C2)cc1	0.97

----------
# System: A549
# procedure.details: Antiproliferative activity against human A549 cells assessed as inhibition of cell growth incubated for 48 hrs by MTT assay
# Assay type: functional, cell-based
# condition.notes: A549, 48 h
pIC50: −log10 of the molar value.

molecule	pIC50
COc1ccc(/C(C#N)=C/C(=O)OCCOC(=O)[C@]2(C)CC[C@]3(C)CC[C@]4(C)C5=CC=C6C(=CC(=O)C(O)=C6C)[C@]5(C)CC[C@@]4(C)[C@@H]3C2)cc1	5.75
COc1ccc(/C(C#N)=C/C(=O)OCCCOC(=O)[C@]2(C)CC[C@]3(C)CC[C@]4(C)C5=CC=C6C(=CC(=O)C(O)=C6C)[C@]5(C)CC[C@@]4(C)[C@@H]3C2)cc1	5.96
CC1=C(O)C(=O)C=C2C1=CC=C1[C@@]2(C)CC[C@@]2(C)[C@@H]3C[C@](C)(C(=O)OC/C=C/COC(=O)/C=C(\C#N)c4ccc(F)cc4)CC[C@]3(C)CC[C@]12C	5.74
CC1=C(O)C(=O)C=C2C1=CC=C1[C@@]2(C)CC[C@@]2(C)[C@@H]3C[C@](C)(C(=O)OCCCOC(=O)/C=C(\C#N)c4ccccc4)CC[C@]3(C)CC[C@]12C	5.85
CC1=C(O)C(=O)C=C2C1=CC=C1[C@@]2(C)CC[C@@]2(C)[C@@H]3C[C@](C)(C(=O)OCCCOC(=O)/C=C(\C#N)c4ccc(F)cc4)CC[C@]3(C)CC[C@]12C	6.39
CC1=C(O)C(=O)C=C2C1=CC=C1[C@@]2(C)CC[C@@]2(C)[C@@H]3C[C@](C)(C(=O)O)CC[C@]3(C)CC[C@]12C [CELASTROL]	5.83

----------
# System: A549
# procedure.details: Antiproliferative activity against human A549 cells assessed as inhibition of cell growth incubated for 48 hrs by MTT assay
# Assay type: functional, cell-based
# condition.notes: A549, 48 h
pIC50: −log10 of the molar value.

molecule	pIC50
COc1ccc(/C(C#N)=C/C(=O)OC/C=C/COC(=O)[C@]2(C)CC[C@]3(C)CC[C@]4(C)C5=CC=C6C(=CC(=O)C(O)=C6C)[C@]5(C)CC[C@@]4(C)[C@@H]3C2)cc1	5.87
COC(=O)[C@]12CCC(C)(C)C[C@H]1[C@H]1C(=O)C=C3[C@@]4(C)C=C(C#N)C(=O)C(C)(C)[C@@H]4CC[C@@]3(C)[C@]1(C)CC2 [BARDOXOLONE METHYL]	6.28
CC1=C(O)C(=O)C=C2C1=CC=C1[C@@]2(C)CC[C@@]2(C)[C@@H]3C[C@](C)(C(=O)OCCOC(=O)/C=C(\C#N)c4ccc(F)cc4)CC[C@]3(C)CC[C@]12C	5.99
CC1=C(O)C(=O)C=C2C1=CC=C1[C@@]2(C)CC[C@@]2(C)[C@@H]3C[C@](C)(C(=O)OCCOC(=O)/C=C(\C#N)c4ccccc4)CC[C@]3(C)CC[C@]12C	5.99
CC1=C(O)C(=O)C=C2C1=CC=C1[C@@]2(C)CC[C@@]2(C)[C@@H]3C[C@](C)(C(=O)OC/C=C/COC(=O)/C=C(\C#N)c4ccccc4)CC[C@]3(C)CC[C@]12C	5.45
